study-target: NLRP3 (Homo sapiens)
assay-overview: Human whole blood IL1β release assay
Type: cell-based
Design: Human whole blood in Li-heparin tubes was obtained from healthy donors; from tissue; host or cells: human whole blood from healthy donors, LPS-primed, nigericin-stimulated
test-context: human whole blood, 1 μg/ml LPS, compound 3 hrs, nigericin 10 μM 1 hr, IL-1β AlphaLisa; read-out: HWB IC50
pIC50: −log10 of the molar value. Structures can show the parent of a compound that is named as a salt.

[
  {
    "compound": "C[C@H](CN(C)C)n1ccc(S(=O)(=O)NC(=O)Nc2c3c(cc4c2CCC4)CCC3)n1",
    "pIC50": "> 6.10"
  },
  {
    "compound": "CN(C)C(=O)Cn1ccc(S(=O)(=O)NC(=O)Nc2c3c(cc4c2CCC4)CCC3)n1 [Example 1, sodium salt]",
    "pIC50": "> 5.00"
  },
  {
    "compound": "CN(C)CCn1ccc(S(=O)(=O)NC(=O)Nc2c(-c3cccnc3)cc(F)c3c2CCC3)n1",
    "pIC50": "> 5.49"
  },
  {
    "compound": "CC(C)c1cc(F)cc(C(C)C)c1NC(=O)NS(=O)(=O)c1cc(C(=O)N(C)C(C)C)n(C)n1",
    "pIC50": "> 6.10"
  }
]

----------
assay-overview: Pharmacokinetic parameters in male Sprague Dawley rats (intravenous and oral administration)
Type: in vivo
test-context: intravenous administration, rat plasma; dose per compound (mg/kg)
Counter-ions that a name gives are not always drawn.
// reported AUC for each item listed

[
  {
    "compound": "CC(C)c1cc(F)cc(-c2cnn(C)c2)c1NC(=O)NS(=O)(=O)c1cc(C(=O)N(C)C)n(C)n1 [Example 135, sodium salt]",
    "AUC / ng·h/mL": 661.2
  },
  {
    "compound": "CC(C)c1cc(F)cc(-c2cccnc2)c1NC(=O)NS(=O)(=O)c1cc(CN(C)C)n(C)n1",
    "AUC / ng·h/mL": 259.0
  },
  {
    "compound": "CC(C)c1cc(F)cc(C2CCOCC2)c1NC(=O)NS(=O)(=O)c1cc(C(=O)N(C)C)n(C)n1 [Example 133, sodium salt]",
    "AUC / ng·h/mL": 182.5
  },
  {
    "compound": "CN(CCO)Cc1cc(S(=O)(=O)NC(=O)Nc2c3c(cc4c2CCC4)CCC3)nn1C",
    "AUC / ng·h/mL": 2067.0
  },
  {
    "compound": "CCn1nc(S(=O)(=O)NC(=O)Nc2c(-c3ccnc(OC)c3)ccc3c2CCC3)cc1CN(C)C",
    "AUC / ng·h/mL": 2710.4
  },
  {
    "compound": "CC(C)c1cc(F)cc(-c2cccnc2)c1NC(=O)NS(=O)(=O)c1cc(C(=O)N(C)C)n(C)n1 [Example 141, sodium salt]",
    "AUC / ng·h/mL": 274.4
  },
  {
    "compound": "CCN(C)C(=O)c1cc(S(=O)(=O)NC(=O)Nc2c3c(cc4c2CCC4)CCC3)nn1C",
    "AUC / ng·h/mL": 1723.1
  }
]

----------
study-target: UniProt Q96P20
assay-overview: THP-1 cells pyroptosis assay
Type: cell-based
Set-up: Seed THP-1 cells (25,000 cells/well) containing 1.0 μg/ml LPS; host or cells: THP-1 cells, LPS-primed, nigericin-stimulated
test-context: THP-1 cells, 1.0 μg/ml LPS, compound 3 hrs, nigericin 5 μM 1 hr, resazurin readout; read-out: THP IC50
Structures can show the parent of a compound that is named as a salt.

[
  {
    "compound": "CN(C)CC(C)(C)n1ccc(S(=O)(=O)NC(=O)Nc2c3c(cc4c2CCC4)CCC3)n1",
    "IC50": "< 160 nM"
  },
  {
    "compound": "Cn1nc(S(=O)(=O)NC(=O)Nc2c3c(cc4c2CCC4)CCC3)cc1C(=O)N1CC(F)C1 [Example 161, ammonium salt]",
    "IC50": "< 2560 nM"
  },
  {
    "compound": "CN1CCn2nc(S(=O)(=O)NC(=O)Nc3c4c(cc5c3CCC5)CCC4)cc2C1=O [Example 5, sodium salt]",
    "IC50": "< 10000 nM"
  },
  {
    "compound": "Cn1nc(S(=O)(=O)NC(=O)Nc2c3c(cc4c2CCC4)CCC3)cc1C(=O)N1CCCC1",
    "IC50": "< 2560 nM"
  },
  {
    "compound": "CC(C)c1cc(F)cc(C(C)C)c1NC(=O)NS(=O)(=O)c1cc(C(=O)N(C)C(C)C)n(C)n1",
    "IC50": "< 160 nM"
  },
  {
    "compound": "CN(C)CC1(n2ccc(S(=O)(=O)NC(=O)Nc3c4c(cc5c3CCC5)CCC4)n2)CC1",
    "IC50": "< 160 nM"
  },
  {
    "compound": "C[C@@H](CN(C)C)n1ccc(S(=O)(=O)NC(=O)Nc2c3c(cc4c2CCC4)CCC3)n1",
    "IC50": "< 640 nM"
  }
]

----------
study-target: NLRP3 (Homo sapiens, UniProt Q96P20)
Sequence (Q96P20 whole entry): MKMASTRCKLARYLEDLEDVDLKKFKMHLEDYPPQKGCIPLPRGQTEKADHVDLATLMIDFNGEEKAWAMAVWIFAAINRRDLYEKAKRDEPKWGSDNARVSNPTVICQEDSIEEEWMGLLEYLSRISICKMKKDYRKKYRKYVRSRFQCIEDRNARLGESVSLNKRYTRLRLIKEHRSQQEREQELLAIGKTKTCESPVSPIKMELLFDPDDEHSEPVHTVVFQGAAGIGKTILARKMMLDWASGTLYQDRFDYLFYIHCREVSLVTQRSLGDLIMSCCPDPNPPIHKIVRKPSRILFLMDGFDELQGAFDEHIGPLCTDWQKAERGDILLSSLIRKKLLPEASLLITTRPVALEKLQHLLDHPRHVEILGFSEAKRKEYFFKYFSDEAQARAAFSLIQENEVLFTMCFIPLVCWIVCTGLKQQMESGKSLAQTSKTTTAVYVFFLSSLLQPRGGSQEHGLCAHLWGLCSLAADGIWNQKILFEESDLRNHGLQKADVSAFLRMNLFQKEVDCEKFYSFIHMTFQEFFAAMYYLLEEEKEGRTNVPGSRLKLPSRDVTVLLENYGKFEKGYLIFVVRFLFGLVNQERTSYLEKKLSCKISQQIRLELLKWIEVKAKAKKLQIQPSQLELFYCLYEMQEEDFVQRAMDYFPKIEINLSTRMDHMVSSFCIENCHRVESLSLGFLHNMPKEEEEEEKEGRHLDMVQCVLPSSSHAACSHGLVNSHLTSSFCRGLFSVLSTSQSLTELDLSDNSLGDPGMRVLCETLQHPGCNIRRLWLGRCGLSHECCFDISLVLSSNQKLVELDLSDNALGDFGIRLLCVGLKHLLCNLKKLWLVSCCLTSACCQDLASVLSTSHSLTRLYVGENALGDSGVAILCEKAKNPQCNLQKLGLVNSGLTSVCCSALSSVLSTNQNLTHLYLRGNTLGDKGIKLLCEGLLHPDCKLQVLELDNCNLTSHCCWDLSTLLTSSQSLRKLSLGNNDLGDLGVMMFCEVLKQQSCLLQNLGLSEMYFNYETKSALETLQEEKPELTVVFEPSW
assay-overview: THP-1 cells pyroptosis assay
Format: cell-based
Parameters: Seed THP-1 cells (25,000 cells/well) containing 1.0 μg/ml LPS; host or cells: THP-1 cells, LPS-primed, nigericin-stimulated
test-context: THP-1 cells, 1.0 μg/ml LPS, compound 3 hrs, nigericin 5 μM 1 hr, resazurin readout; read-out: THP IC50
Structures can show the parent of a compound that is named as a salt.

[
  {
    "compound": "CC(C)c1cccc(C(C)C)c1NC(=O)NS(=O)(=O)c1cc(C(=O)N2CCCC2)n(C)n1 [Example 163]",
    "IC50": "< 2560 nM"
  },
  {
    "compound": "CN(C)CC(C)(C)n1ccc(S(=O)(=O)NC(=O)Nc2c(-c3ccnc(OC4CC4)c3)ccc3c2CCC3)n1 [Example 194, sodium salt]",
    "IC50": "< 40 nM"
  },
  {
    "compound": "N#CCn1ccc(S(=O)(=O)NC(=O)Nc2c3c(cc4c2CCC4)CCC3)n1 [Example 34]",
    "IC50": "< 640 nM"
  },
  {
    "compound": "CC(C)c1cc(Cl)cc(C(C)C)c1NC(=O)NS(=O)(=O)c1cc(CN2CCOCC2)n(C)n1 [Example 127, sodium salt]",
    "IC50": "< 2560 nM"
  },
  {
    "compound": "CN(C)CCn1cc(S(=O)(=O)NC(=O)Nc2c3c(cc4c2CCC4)CCC3)nn1 [Example 25, sodium salt]",
    "IC50": "< 640 nM"
  },
  {
    "compound": "CC(C)c1cc(F)cc(C(C)C)c1NC(=O)NS(=O)(=O)c1cc(C(=O)N2CCC2)n(C)n1 [Example 145, sodium salt]",
    "IC50": "< 160 nM"
  },
  {
    "compound": "CN(C)Cc1c(S(=O)(=O)NC(=O)Nc2c3c(cc4c2CCC4)CCC3)ncn1C [Example 171]",
    "IC50": "< 640 nM"
  },
  {
    "compound": "O=C(Nc1c2c(cc3c1CCC3)CCC2)NS(=O)(=O)c1ccn(C2CNC2)n1 [Example 14]",
    "IC50": "< 640 nM"
  }
]

----------
study-target: NLRP3 (Homo sapiens)
assay-overview: Human whole blood IL1β release assay
Assay type: cell-based
Set-up: Human whole blood in Li-heparin tubes was obtained from healthy donors; from tissue; host or cells: human whole blood from healthy donors, LPS-primed, nigericin-stimulated
test-context: human whole blood, 1 μg/ml LPS, compound 3 hrs, nigericin 10 μM 1 hr, IL-1β AlphaLisa; read-out: HWB IC50
pIC50: −log10 of the molar value. Counter-ions that a name gives are not always drawn.
pIC50 values, listed per item
assay-metric: pIC50

[
  {
    "molecule": "Cn1ccnc1Cn1ccc(S(=O)(=O)NC(=O)Nc2c3c(cc4c2CCC4)CCC3)n1",
    "study-target": "NLRP3 (Homo sapiens)",
    "experimental-result": "> 6.10"
  },
  {
    "molecule": "CN(C)CCn1cnc(S(=O)(=O)NC(=O)Nc2c3c(cc4c2CCC4)CCC3)n1",
    "study-target": "NLRP3 (Homo sapiens)",
    "experimental-result": "> 6.10"
  },
  {
    "molecule": "CNCCn1ccc(S(=O)(=O)NC(=O)Nc2c3c(cc4c2CCC4)CCC3)n1",
    "study-target": "NLRP3 (Homo sapiens)",
    "experimental-result": "> 6.10"
  },
  {
    "molecule": "CN(C)CCn1cnc(S(=O)(=O)NC(=O)Nc2c3c(cc4c2CCC4)CCC3)c1",
    "study-target": "NLRP3 (Homo sapiens)",
    "experimental-result": "> 5.49"
  },
  {
    "molecule": "CN(C)CC(C)(C)n1ccc(S(=O)(=O)NC(=O)Nc2c(-c3ccnc(OC4CC4)c3)ccc3c2CCC3)n1 [Example 194, sodium salt]",
    "study-target": "NLRP3 (Homo sapiens)",
    "experimental-result": "> 6.40"
  },
  {
    "molecule": "CN(C)CC(C)(C)n1cc(S(=O)(=O)NC(=O)Nc2c3c(cc4c2CCC4)CCC3)cn1",
    "study-target": "NLRP3 (Homo sapiens)",
    "experimental-result": "> 5.80"
  },
  {
    "molecule": "CCN(C)C(=O)c1cc(S(=O)(=O)NC(=O)Nc2c(C(C)C)cccc2C(C)C)nn1C",
    "study-target": "NLRP3 (Homo sapiens)",
    "experimental-result": "> 5.49"
  },
  {
    "molecule": "CC(C)c1ccc(C(C)C)c(NC(=O)NS(=O)(=O)c2cc(C(=O)N(C)C)n(C)n2)c1 [Example 144, sodium salt]",
    "study-target": "NLRP3 (Homo sapiens)",
    "experimental-result": "> 5.00"
  }
]
